System: T. gondii β-gal tachyzoites
Assay: IC50 determination with T. gondii β-gal tachyzoites grown in HFF monolayers
Type: cell-based, Toxoplasma gondii
Conditions: Toxoplasma gondii; Tg-β-gal in HFF; compound added 3 h post-infection; [upper; lower limit of 95% CI]; read-out: IC50 T. gondii (nM) [LS; LI] Compound Added 3 h Post-infection
Kindly state IC50 for each of the entries shown.
Give the number; nM is assumed, so skip it.

Lookup: Reported IC50 for `CCCCCCCCCCOc1cc2c(O)c(C(=O)OCC)cnc2cc1OCC` : what is it?
Found: 4.7

Lookup: Please do the same for `CCCCCCCCCCOc1cc2c(OC(=O)N3CCN(CC)C(=O)C3=O)c(C(=O)OCCOC)cnc2cc1OCC` as well.
Found: 11.4

Lookup: Please do the same for `CCCCCCCCCCOc1cc2c(OC(=O)N3CCN(S(C)(=O)=O)C3=O)c(C(=O)OCC)cnc2cc1OCC` as well.
Found: 0.7

Lookup: Please do the same for `CCCCCCCCCCOc1cc2c(OC(=O)N3CCN(S(C)(=O)=O)C3=O)c(C(=O)OCCOC)cnc2cc1OCC` as well.
Found: 227
